Values from PubChem BioAssay

Assay: GLP1 release stimulators, primary, NCI-H716, NPC library (AID 1117341); also: reference of the scale not given here
Details: NCI-H716 cells, at 10 µM, hits give high values
List of GLP1 secretion stimulation values.
Output spec: scalar in %, unitless text.

Requested read-out: GLP1 secretion stimulation. Entry: `OCc1ccccc1O` -0.3

Requested read-out: GLP1 secretion stimulation. Entry: `Nc1ccc(S(=O)(=O)Nc2ccccn2)cc1` -3.8

Requested read-out: GLP1 secretion stimulation. Entry: CC1CC(OC(=O)C(O)c2ccccc2)CC(C)(C)N1C (stereo unspecified) 2.1

Requested read-out: GLP1 secretion stimulation. Entry: O=C(NC(Cc1cc(=O)[nH]c2ccccc12)C(=O)O)c1ccc(Cl)cc1 (stereo unspecified) -0.3

Requested read-out: GLP1 secretion stimulation. Entry: `NC(N)=NCCN1CCCCCCC1` -0.1

Requested read-out: GLP1 secretion stimulation. Entry: `COc1ccc(CN(CCN(C)C)c2ccccn2)cc1` 1.2
